Tested on: Candida albicans C1-2
runDescription: In vitro antifungal activity, microbroth dilution MIC
Format: cell-based
runConditions: C. albicans C1-2, RPMI-1640, 35° C., 4 to 48 hours
Excerpt: […]
assayMetric: Minimal inhibitory concentration (MIC)

Worked examples follow.
FC(=Cc1ccc2c(c1)OCO2)OCC1COC(Cn2ccnc2)(c2ccc(Cl)cc2Cl)O1 (centres unmarked): 25.0 µg/mL
FC(=Cc1ccc(Cl)cc1)OCC1COC(Cn2ccnc2)(c2ccc(Cl)cc2Cl)O1 (centres unmarked): 12.5 µg/mL
FC(=Cc1cccc(Cl)c1)OCC1COC(Cn2ccnc2)(c2ccc(Cl)cc2Cl)O1 (centres unmarked): 3.13 µg/mL
Cc1ccc(C(=C(F)OCC2COC(Cn3ccnc3)(c3ccc(Cl)cc3Cl)O2)C(F)(F)F)cc1 (centres unmarked): 6.25 µg/mL

Exam item: Indicate the recorded Minimal inhibitory concentration (MIC) value for this compound: COc1ccc(C(=C(F)OCC2COC(Cn3ccnc3)(c3ccc(Cl)cc3Cl)O2)C(F)(F)F)cc1 (centres unmarked)
Marked response: 25.0 µg/mL

Exam item: Indicate the recorded Minimal inhibitory concentration (MIC) value for this compound: FC(OCC1COC(Cn2ccnc2)(c2ccc(Cl)cc2Cl)O1)=C(c1cccs1)C(F)(F)F (mixture of isomers)
Marked response: 25.0 µg/mL

Exam item: Indicate the recorded Minimal inhibitory concentration (MIC) value for this compound: FC(OCC1COC(Cn2ccnc2)(c2ccc(Cl)cc2Cl)O1)=C(c1ccc(Cl)cc1)C(F)(F)F (centres unmarked)
Marked response: 12.5 µg/mL

Exam item: Indicate the recorded Minimal inhibitory concentration (MIC) value for this compound: Cc1ccc(C=C(F)OCC2COC(Cn3ccnc3)(c3ccc(Cl)cc3Cl)O2)cc1C (centres unmarked)
Marked response: 12.5 µg/mL

---

Tested on: Candida tropicalis A. 13803
runDescription: In vitro antifungal activity, microbroth dilution MIC
Format: cell-based
runConditions: RPMI-1640, 35° C., 4 to 48 hours, no growth observed
assayMetric: Minimal inhibitory concentration(MIC), C. tropicalis A. 13803

Worked examples follow.
Cc1ccc(C(=C(F)OCC2COC(Cn3cncn3)(c3ccc(Cl)cc3Cl)O2)C(F)(F)F)cc1C (mixture of isomers) [Ex. 82]: >100 µg/mL
Cc1ccc(C(=C(F)Oc2ccc(OCC3COC(Cn4ccnc4)(c4ccc(Cl)cc4Cl)O3)cc2)C(F)(F)F)cc1 (mixture of isomers) [Ex. 94]: >100 µg/mL
FC(Oc1ccc(OCC2COC(Cn3cncn3)(c3ccc(Cl)cc3Cl)O2)cc1)=C(c1ccc(Cl)cc1)C(F)(F)F (mixture of isomers) [Ex. 122]: 25.0 µg/mL
Cc1ccc(C(=C(F)Oc2ccc(OCC3COC(Cn4cncn4)(c4ccc(Cl)cc4Cl)O3)cc2)C(F)(F)F)cc1 (mixture of isomers) [Ex. 120]: 100 µg/mL
CCc1ccc(C=C(F)OCC2COC(Cn3cncn3)(c3ccc(Cl)cc3Cl)O2)cc1 (mixture of isomers) [Ex. 72]: 25.0 µg/mL

Exam item: Retrieve Minimal inhibitory concentration(MIC), C. tropicalis A. 13803 on Candida tropicalis A. 13803; query Cc1ccc(C(=C(F)Oc2ccc(OCC3COC(Cn4ccnc4)(c4ccc(F)cc4F)O3)cc2)C(F)(F)F)cc1C (mixture of isomers) [Ex. 110]
Marked response: >100 µg/mL

Exam item: Retrieve Minimal inhibitory concentration(MIC), C. tropicalis A. 13803 on Candida tropicalis A. 13803; query FC(Oc1ccc(OCC2COC(Cn3ccnc3)(c3ccc(Cl)cc3Cl)O2)cc1)=C(c1cc(Cl)cc(Cl)c1)C(F)(F)F (mixture of isomers) [Ex. 104]
Marked response: >100 µg/mL
